Every entry's value here was drawn from paper PMC8546428.

Biological target: sTAAR365 T7.42V (Petromyzon marinus, UniProt A0A678XMK4, T298V)
Sequence (A0A678XMK4 whole entry T298V): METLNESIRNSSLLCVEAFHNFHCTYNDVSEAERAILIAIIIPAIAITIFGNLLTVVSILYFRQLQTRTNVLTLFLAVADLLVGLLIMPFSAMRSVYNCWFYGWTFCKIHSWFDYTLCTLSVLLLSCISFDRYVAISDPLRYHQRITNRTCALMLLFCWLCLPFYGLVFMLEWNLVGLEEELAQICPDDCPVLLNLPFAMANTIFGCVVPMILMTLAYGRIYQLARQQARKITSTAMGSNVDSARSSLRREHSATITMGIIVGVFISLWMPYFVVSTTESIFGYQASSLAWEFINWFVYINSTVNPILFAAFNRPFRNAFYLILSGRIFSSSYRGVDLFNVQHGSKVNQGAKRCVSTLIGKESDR
Assay: cell-based
assay-metric: EC50 (µM)
Answer with a number only, understood to be in µM.

q: Which EC50 value is on record for NCCCCCN [cadaverine] ?
a: 9

---

Target: sTAAR365 Y7.43A (Petromyzon marinus, UniProt A0A678XMK4, Y299A)
Sequence (A0A678XMK4 whole entry Y299A): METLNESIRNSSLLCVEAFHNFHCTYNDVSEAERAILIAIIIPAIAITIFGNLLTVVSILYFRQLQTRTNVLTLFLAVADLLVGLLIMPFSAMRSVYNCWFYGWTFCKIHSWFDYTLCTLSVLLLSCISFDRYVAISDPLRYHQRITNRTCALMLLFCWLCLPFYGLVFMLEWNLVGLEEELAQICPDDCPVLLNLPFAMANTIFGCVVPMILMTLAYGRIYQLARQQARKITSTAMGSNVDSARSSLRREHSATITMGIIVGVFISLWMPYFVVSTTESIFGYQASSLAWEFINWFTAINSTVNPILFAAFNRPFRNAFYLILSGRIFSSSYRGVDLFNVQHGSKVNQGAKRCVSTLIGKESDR
Experiment: cell-based
assay-metric: EC50 (µM)
Answer with a number only, understood to be in µM.

q: Give sTAAR365 Y7.43A (Petromyzon marinus, UniProt A0A678XMK4, Y299A) EC50 for NCCCCCN
a: 144

---

Molecular target: mTAAR9 Y6.51W (Mus musculus, UniProt Q5QD04, Y274W)
Construct: expressed in transfected cells; host or cells: Hana3A (HEK293-derived)
Sequence (Q5QD04 whole entry Y274W): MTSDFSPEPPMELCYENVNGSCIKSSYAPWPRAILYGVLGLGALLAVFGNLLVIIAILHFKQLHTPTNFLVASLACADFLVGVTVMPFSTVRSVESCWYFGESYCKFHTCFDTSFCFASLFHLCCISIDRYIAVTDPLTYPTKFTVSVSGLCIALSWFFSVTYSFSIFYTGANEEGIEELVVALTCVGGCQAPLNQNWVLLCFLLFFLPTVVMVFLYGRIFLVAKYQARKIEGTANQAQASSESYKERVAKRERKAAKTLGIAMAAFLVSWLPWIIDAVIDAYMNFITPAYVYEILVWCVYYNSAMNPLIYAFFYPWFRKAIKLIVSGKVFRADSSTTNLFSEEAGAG
Assay: CRE-luciferase reporter assay, mTAAR9 mutant in Hana3A
Assay type: cell-based
Details: read-out: EC50 (mean ± S.D., n = 3)
assay-metric: EC50

Here is how some compounds turned out for EC50.
{"compound": "NCCCCNCCCN [spermidine]", "EC50": "> 1000 µM"}
{"compound": "CCN(CC)CC [triethylamine]", "EC50": "355 µM"}

q: Which EC50 value is on record for NCCCCCN [cadaverine] ?
a: > 1000 µM
